measurement description: inhibitors of DENV2 cytopathic effect, primary screen, cell-based, plate reader, single concentration (AID 651640);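 note: 0% = median of neutral control wells and 100% = median of positive control wells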
test settings: DENV2-infected cells, cytopathic effect rescue, at 9.99 µM, hits give high values
Screen size: about 350,000 compounds; about 6,000 (1.7%) were called active. Not shown: some 5% with an inconclusive outcome. The entries come from a sample that favours actives as a whole.
recorded endpoint: CPE inhibition

{"molecule": "C[C@H]1CN([C@@H](C)CO)S(=O)(=O)c2ccc(C#Cc3ccncc3)cc2O[C@@H]1CN(C)C(=O)Nc1ccc2c(c1)OCO2", "CPE inhibition": "13.3% (inactive)"}
{"molecule": "C[C@@H]1CN([C@H](C)CO)C(=O)c2cc(NS(=O)(=O)c3ccc(F)cc3)ccc2O[C@H]1CN(C)Cc1ccncc1", "CPE inhibition": "-0.549% (inactive)"}
{"molecule": "COCC(=O)N(C)C[C@H]1Oc2cc(C#CC(C)C)ccc2S(=O)(=O)N([C@H](C)CO)C[C@@H]1C", "CPE inhibition": "-1.85% (inactive)"}
{"molecule": "CCCNC(=O)[C@H]1[C@H](CO)[C@H]2Cn3c(ccc(-c4cccc(F)c4)c3=O)[C@@H]1N2C(=O)CC", "CPE inhibition": "0.06% (inactive)"}
{"molecule": "O=C(O)C1CCCCC1C(=O)N1CCN(S(=O)(=O)c2ccc(F)cc2)CC1 (stereo not drawn)", "CPE inhibition": "70.6% (active)"}

Problem: So what does the record say about CPE inhibition for `C[C@@H]1CN([C@@H](C)CO)C(=O)Cc2cc(NC(=O)CCN3CCOCC3)ccc2O[C@@H]1CN(C)CC1CC1` ?
Result: -11.7% (inactive)

Problem: Reported CPE inhibition for `C[C@H]1CN([C@@H](C)CO)S(=O)(=O)c2ccc(C3=CCCC3)cc2O[C@H]1CN(C)C(=O)Nc1ccc2c(c1)OCO2` : what is it?
Result: -1.69% (inactive)

Problem: Item `C[C@@H]1CN([C@H](C)CO)S(=O)(=O)c2ccc(C3=CCCC3)cc2O[C@H]1CN(C)C(=O)Nc1ccc2c(c1)OCO2` has what recorded CPE inhibition?
Result: 21.4% (active)

----------
measurement description: inhibitors of DENV2 cytopathic effect, primary screen, cell-based, plate reader, single concentration (AID 651640);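 note: 0% = median of neutral control wells and 100% = median of positive control wells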
test settings: DENV2-infected cells, cytopathic effect rescue, at 9.99 µM, hits give high values
Screen size: about 350,000 compounds; about 6,000 (1.7%) were called active. Not shown: some 5% with an inconclusive outcome. This excerpt belongs to a sample that is enriched for actives.
recorded endpoint: CPE inhibition (%)
Number in %, nothing else.

Consider the worked cases shown below.
{"compound": "CCOC(=O)C1(Cc2ccccc2C)CCCN(C(=O)CN2C(=O)CSC2=O)C1 (centres undefined)", "CPE inhibition, %": 1.33}
{"compound": "COc1ccc(-c2ccc3c(c2)[C@H]2[C@H](CCN2S(=O)(=O)c2ccccc2F)[C@H](CO)N3)cc1", "CPE inhibition, %": -28.4}
{"compound": "Cc1noc(C)c1CCC(=O)N1CCCC(CO)(Cc2ccccc2)C1 (centres undefined)", "CPE inhibition, %": 7.18}
{"compound": "CNC(=O)C[C@H]1CC[C@H]2[C@@H](COc3ccc(NS(=O)(=O)c4ccc(F)cc4)cc3C(=O)N2C)O1", "CPE inhibition, %": -4.93}
{"compound": "CC(Oc1ccc(Br)cc1)C(=O)NCC(c1ccco1)N1CCCCC1 (centres undefined)", "CPE inhibition, %": -0.377}
{"compound": "COc1ccccc1C(=O)NCCC(=O)NCC(c1ccco1)N1CCCCC1 (centres undefined)", "CPE inhibition, %": -2.74}
{"compound": "C/C=C/c1ccc2c(c1)O[C@H](CN(C)C(=O)c1ccc3c(c1)OCO3)[C@@H](C)CN([C@H](C)CO)S2(=O)=O", "CPE inhibition, %": 19.1}
{"compound": "CCC(=O)Nc1ccc2c(c1)OC[C@H](C)N(CC1CCOCC1)C[C@@H](C)[C@@H](OC)CN(C)C2=O", "CPE inhibition, %": -4.88}

Problem: Return reported CPE inhibition; argument: O=C(CCNC(=O)c1ccc(Br)cc1)NCC(c1ccco1)N1CCCCC1 (centres undefined)
Result: 81.5

----------
measurement description: inhibitors of DENV2 cytopathic effect, primary screen, cell-based, plate reader, single concentration (AID 651640);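 note: 0% = median of neutral control wells and 100% = median of positive control wells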
test settings: DENV2-infected cells, cytopathic effect rescue, at 9.99 µM
About 6,000 (1.7%) of roughly 350,000 compounds were called active. Another 5% or so got no clear call; they are omitted. Rule as the data show it: active = CPE inhibition above about 20% (passing the limit was not always enough); inconclusive = no clear call, values can overlap the other calls; tested in BHK-21 cells. This is one part of a sample in which actives are shown more often than they occur.
Log the outcome using a class from active, inactive

Sample answers from the record:
{"item smiles": "CC(=O)N1CC2(C1)[C@H](c1ccccc1)[C@@H](CO)N2C(=O)Cc1ccccc1", "assigned class": "inactive"}
{"item smiles": "O=C(NC(=S)Nc1ccc(Cl)cc1Cl)C1CC1", "assigned class": "active"}
{"item smiles": "S=C(Nc1ccc(Cl)cc1Cl)N1CCCC1", "assigned class": "inactive"}

Problem: Which outcome was assigned to `O=C(C1CCCCC1)N1[C@H](CO)[C@@H](c2ccccc2)C12CN(Cc1cccc(Cl)c1)C2` in this test?
Result: active

Problem: Identify the outcome logged in this assay for the compound shown: `CCc1ccc(C(=O)CSc2nnc(C)c(=O)[nH]2)cc1`
Result: inactive

Problem: Identify the outcome logged in this assay for the compound shown: `C/C=C/c1ccc([C@@H]2[C@H](CO)N(C(=O)c3cnccn3)C23CN(C(C)=O)C3)cc1`
Result: inactive

Problem: // return assay outcome for `Cc1nnc(SCC(=O)N2CCOCC2)[nH]c1=O`
Result: active

Problem: Short answer needed: outcome of this test for `CCCNC(=O)N1CC2(C1)[C@H](c1ccccc1)[C@@H](CO)N2C(=O)C1CC1` ?
Result: inactive

Problem: Outcome? `CN(C)CC(=O)N1[C@@H](CO)[C@H](c2ccccc2)C12CN(C(=O)c1cccc(F)c1)C2`
Result: active

----------
measurement description: inhibitors of DENV2 cytopathic effect, primary screen, cell-based, plate reader, single concentration (AID 651640);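 note: 0% = median of neutral control wells and 100% = median of positive control wells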
test settings: DENV2-infected cells, cytopathic effect rescue, at 9.99 µM
Out of some 350,000 compounds screened, about 6,000 (1.7%) were called active. Roughly 5% stayed inconclusive and do not appear here. Rule as the data show it: active = CPE inhibition above about 20% (passing the limit was not always enough); inconclusive = no clear call, values can overlap the other calls; tested in BHK-21 cells. The sample as a whole holds a higher share of actives than the screen did.
Give one outcome, nothing more. List: YES for active, NO for inactive

{"compound": "COc1cccc(C#Cc2cnc3c(c2)C(=O)N([C@H](C)CO)C[C@@H](C)[C@@H](CN(C)C(=O)C2CCC2)O3)c1", "assigned class": "NO"}
{"compound": "O=C(CN1CCC(NC(=O)Nc2ccccc2)CC1)Nc1cccc([N+](=O)[O-])c1", "assigned class": "NO"}

Problem: Check the results log: what was the call for `O=S(=O)(NC[C@H]1[C@H](c2ccccc2)[C@H](CO)N1CC1CC1)c1ccccc1` ?
Result: NO

Problem: Entry `COc1ccc(NC(=O)N(C)C[C@@H]2Oc3ccc(NS(=O)(=O)c4ccc(OC)cc4)cc3CC(=O)N([C@H](C)CO)C[C@H]2C)cc1` : call = ?
Result: NO

Problem: Look up the recorded call for `CCCNC(=O)N1C[C@@H](O)COC[C@@H]2O[C@H](CC(=O)N3CCN(C)CC3)CC[C@H]21` in this test.
Result: NO

Problem: Returns: the outcome recorded for `O=C(C[C@@H]1CC[C@@H]2[C@H](COC[C@H](O)CN2S(=O)(=O)c2ccc(Cl)cc2)O1)N[C@@H]1CCN(Cc2ccccc2)C1` in this assay.
Result: NO

Problem: Dear all, I need the recorded test outcome for `CN1c2ccc(-c3ccc(C#N)cc3)cc2[C@@H]2[C@@H](CCN2C(=O)C2CCCCC2)[C@H]1CO` , thank you.
Result: NO

Problem: I'd appreciate the recorded outcome for `Cc1noc(C)c1S(=O)(=O)Nc1ccc2c(c1)CC(=O)N([C@@H](C)CO)C[C@H](C)[C@H](CN(C)C(=O)Nc1ccccc1)O2` from this test.
Result: NO

Problem: # lookup: test call for COCCn1c(SCC(=O)Nc2cc(Cl)ccc2OC)nc2c(c1=O)SC(C)C2 (centres undefined)
Result: NO

Problem: So what was the verdict on `CC(C)NC(=O)Nc1cccc2c1O[C@@H](CN(C)Cc1ccc(C(=O)O)cc1)[C@@H](C)CN([C@H](C)CO)C2=O` in this test?
Result: NO

Problem: Identify the outcome logged in this assay for the compound shown: `COCCn1c(SCC(=O)Nc2ccc(F)cc2F)nc2c(c1=O)SCC2`
Result: NO

----------
The entries below are paired with their reported CPE inhibition.
measurement description: inhibitors of DENV2 cytopathic effect, primary screen, cell-based, plate reader, single concentration (AID 651640);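 note: 0% = median of neutral control wells and 100% = median of positive control wells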
test settings: DENV2-infected cells, cytopathic effect rescue, at 9.99 µM, hits give high values
Out of some 350,000 compounds screened, about 6,000 (1.7%) were called active. Roughly 5% stayed inconclusive and do not appear here. Many of the other results were omitted from the sample, so actives are more common in it than they were.

// below: answered molecules
{"molecule": "N#C[C@H]1N[C@H](CO)[C@H]1c1ccc(-c2cccc(F)c2)cc1", "result": "3.16% (inactive)"}
{"molecule": "Cc1ccc(S(=O)(=O)CCC(=O)OCC(=O)NCCc2ccc(S(N)(=O)=O)cc2)cc1", "result": "2.48% (inactive)"}
{"molecule": "CCCN1[C@H](C(=O)N2CCCCC2)[C@@H](CO)[C@@H]2Cn3c(ccc(-c4ccccc4F)c3=O)[C@@H]21", "result": "0.279% (inactive)"}

Problem: Param item = `O=C(COc1ccccc1)Nc1ccc(N2CCN(C(=O)c3cccs3)CC2)cc1` ; retrieve measured CPE inhibition.
Result: 21.9% (active)

Problem: Which CPE inhibition value belongs to `CCCC#Cc1ccc2c(c1)O[C@H](CN(C)C(=O)c1ccncc1)[C@H](C)CN([C@H](C)CO)S2(=O)=O` ?
Result: -4.65% (inactive)

Problem: Could you tell me which CPE inhibition is on file for `CC(=O)N1[C@H](CO)[C@@H](c2ccccc2)[C@@H]1CN(CC(C)C)C(=O)c1ccccn1` ?
Result: -9.41% (inactive)

Problem: For the molecule `COc1ccc(S(=O)(=O)N[C@H]2C=C[C@@H](CC(=O)O)O[C@@H]2CO)cc1` , what CPE inhibition is on record?
Result: -1.75% (inactive)

Problem: May I ask what CPE inhibition has been recorded for `CCOc1ccc(Oc2nc(C)cc(OC)n2)nn1` ?
Result: 71.4% (active)

Problem: Give the measured CPE inhibition of `O=C(CN1CCOCC1)N[C@@H]1CC[C@H](CCNS(=O)(=O)c2ccccc2F)O[C@H]1CO` .
Result: 28.5% (active)

Problem: Entry `O=C(NC[C@@H]1N[C@@H](CO)[C@H]1c1ccc(-c2cccnc2)cc1)c1cccc(F)c1` : reported CPE inhibition = ?
Result: 41.5% (active)

Problem: Tell me the measured CPE inhibition of `CNC[C@@H]1OCCCC[C@H](C)Oc2ccc(NC(=O)Nc3ccc(OC)cc3)cc2C(=O)N([C@H](C)CO)C[C@@H]1C` , please.
Result: 7.49% (inactive)

Problem: // returns reported CPE inhibition for input CC1(c2ccc(Cl)cc2)NC(=O)N(CC(=O)c2ccc3c(c2)OCO3)C1=O (stereo not drawn)
Result: 14.3% (inactive)

Problem: Dear colleague, I am looking for the recorded CPE inhibition of the following molecule: `COc1ccccc1NC(=O)N1C[C@H]2[C@@H](c3ccccc31)[C@@H](CO)N2C(=O)C1CCCC1`
Result: -7.24% (inactive)

Problem: Quick check: CPE inhibition of COc1ccc(C2(C)NC(=O)N(CC(=O)c3ccc4c(c3)OCO4)C2=O)cc1 (stereo not drawn) ?
Result: 53.4% (active)

Problem: Which value of CPE inhibition has been reported for `COc1cccc(C(=O)N2C[C@@H]3[C@H](c4ccccc42)[C@H](CO)N3Cc2ccccc2F)c1` in the records?
Result: 6.58% (inactive)
